- assay target: Green Fluorescent Protein (GFP) (UniProt P42212 1-238 = GFP, biotin on the avi-tag (in-vivo biotinylation))
- experiment summary: SPR
quantity kind: koff (s⁻¹)
Write the answer as a number in s⁻¹, unit excluded.

Sample answers from the record:
INSERT INTO results (binder, endpoint_value) VALUES
  ('DARPin 3G61 (designed binder) MRGSHHHHHHGSDLGKKLLEAARAGQDDEVRILMANGADVNALDEVGWTPLHLAAWGHLEIVEVLLKNGADVNAADIDGYTPLHLAAFSGHLEIVEVLLKYGADVNADDQAGFTPLHLAAIFGHLEIVEVLLKNGADVNAQDKFGKTAFDISIDNGNEDLAEILQKLN', 0.000797),
  ('DARPin 3G124 (designed binder) DLGKKLLEAARAGQDDEVRILMANGADVNAADDVGVTPLHLAAQRGHLEIVEVLLKYGADVNAADLWGQTPLHLAATAGHLEIVEVLLKNGADVNARDNIGHTPLHLAAWAGHLEIVEVLLKYGADVNAQDKFGKTAFDISIDNGNEDLAEILQ', 0.000228),
  ('DARPin 3G86.1 (designed binder) MRGSHHHHHHGSDLGKKLLEAARAGQDDEVRILMANGADVNALDRFGLTPLHLAAQRGHLEIVEVLLKCGADVNAADLWGQTPLHLAATAGHLEIVEVLLKNGADVNARDNIGHTPLHLAAWAGHLEIVEVLLKHGADVNAQDKFGKTAFDISIDNGNEDLAEILQKLN', 0.000369);

Need koff of DARPin 3G86.32 (designed binder) MRGSHHHHHHGSDLGKKLLEAARAGQDDEVRILMANGADVNALDRFGLTPLHLAAQRGHLEIVEVLLKCGADVNAADLWGQTPLHLAATAGHLEIVEVLLKYGADVNALDLIGKTPLHLTAIDGHLEIVEVLLKHGADVNAQDKFGKTAFDISIDNGNEDLAEILQKLN , thanks. 0.00022

src = paper PMC4265764
